test system: arachidonic acid (AA) cascade; assay: kidney tissue oxylipin/PG levels in LPS induced sepsis in mice; settings: kidney tissue 24 h after LPS treatment, LPS +, mean
Recorded endpoint: 13(14)-EpDPE (nM)
One number for each entry, in nM.

>>> reported_value("Oc1ccc(/C=C/c2cc(O)cc(O)c2)cc1 [Resveratrol, resveratrol]")
24

Now examine the next entry.
query: Give a short answer stating reported 13(14)-EpDPE for Oc1ccc(/C=C/c2cc(O)cc3c2[C@@H](c2cc(O)cc(O)c2)[C@H](c2ccc(O)cc2)O3)cc1 [ε-Viniferin, ε-viniferin] .
result: 22

###

Target: ovine recombinant COX–1 (Ovis aries, UniProt P05979)
Sequence (P05979 25-600): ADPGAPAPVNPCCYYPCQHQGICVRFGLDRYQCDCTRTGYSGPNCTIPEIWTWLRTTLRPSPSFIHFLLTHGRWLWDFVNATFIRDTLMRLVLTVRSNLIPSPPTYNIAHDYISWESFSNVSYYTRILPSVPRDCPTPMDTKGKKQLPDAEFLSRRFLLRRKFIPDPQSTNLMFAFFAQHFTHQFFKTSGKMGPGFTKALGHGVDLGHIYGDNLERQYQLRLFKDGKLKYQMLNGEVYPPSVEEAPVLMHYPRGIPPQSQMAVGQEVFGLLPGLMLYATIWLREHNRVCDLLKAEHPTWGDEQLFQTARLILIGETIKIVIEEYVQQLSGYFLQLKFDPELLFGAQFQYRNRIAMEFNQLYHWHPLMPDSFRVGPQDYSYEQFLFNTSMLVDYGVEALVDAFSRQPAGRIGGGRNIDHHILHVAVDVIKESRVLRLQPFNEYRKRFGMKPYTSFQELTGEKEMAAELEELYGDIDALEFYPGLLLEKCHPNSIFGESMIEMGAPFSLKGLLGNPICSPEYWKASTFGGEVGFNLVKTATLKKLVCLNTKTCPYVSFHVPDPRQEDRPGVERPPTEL
Test: cell-free COX–1 enzyme assay (PGE2 formation, LC-MS)
Type: biochemical
Parameters: purchased Cayman Chemicals/ Biomol, Hamburg, Germany
Recorded endpoint: pIC50
Numbers only, as −log10 of the molar value.

query: Provide pIC50 value for the following compound: Oc1ccc(/C=C/c2cc(O)cc(O)c2)cc1 [Resveratrol, resveratrol]
result: 6.31

###

tested on: arachidonic acid (AA) cascade; experiment: kidney tissue oxylipin/PG levels in LPS induced sepsis in mice; conditions: kidney tissue 24 h after LPS treatment, LPS +, mean
Please go through the items and note down their 9(10)-EpODE.
Answers are plain numbers, in nM.

>>> reported_value("Oc1ccc(/C=C/c2cc(O)cc3c2[C@@H](c2cc(O)cc(O)c2)[C@H](c2ccc(O)cc2)O3)cc1 [ε-Viniferin, ε-viniferin]")
9.9

Need 9(10)-EpODE for each of these molecules.
1. O=c1c(-c2ccc(O)cc2)coc2cc(O)cc(O)c12 [Genistein, genistein]
2. O=c1cc(-c2ccc(O)cc2)oc2cc(O)cc(O)c12 [Apigenin, apigenin]
3. Oc1ccc(/C=C/c2cc(O)cc(O)c2)cc1 [Resveratrol, resveratrol]

result:
[14, 13, 8.2]

###

test system: arachidonic acid (AA) cascade; test: kidney tissue oxylipin/PG levels in LPS induced sepsis in mice; settings: kidney tissue 24 h after LPS treatment, LPS +, mean;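 further: male C57BL/6N mice challenged with LPS, kidney taken 24 h later, oxylipins quantified by LC-MS after solid-phase extraction of tissue homogenate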
Recorded endpoint: 9-HETE (nM)
Answers are plain numbers, in nM.

>>> reported_value("O=c1cc(-c2ccc(O)cc2)oc2cc(O)cc(O)c12 [Apigenin, apigenin]")
3.5
>>> reported_value("Oc1ccc(/C=C/c2cc(O)cc3c2[C@@H](c2cc(O)cc(O)c2)[C@H](c2ccc(O)cc2)O3)cc1 [ε-Viniferin, ε-viniferin]")
3.6

Kindly consider the entry below.
query: Return reported 9-HETE. Input compound: Oc1ccc(/C=C/c2cc(O)cc(O)c2)cc1 [Resveratrol, resveratrol]
result: 3.1
